molecular target: Adenosine receptor A2a (Homo sapiens, UniProt P29274); assay: Displacement of [3H]ZM241385 from human adenosine A2A receptor expressed in HEK293 cell membranes at 1 uM after 90 mins relative to control
Sequence (P29274 whole entry): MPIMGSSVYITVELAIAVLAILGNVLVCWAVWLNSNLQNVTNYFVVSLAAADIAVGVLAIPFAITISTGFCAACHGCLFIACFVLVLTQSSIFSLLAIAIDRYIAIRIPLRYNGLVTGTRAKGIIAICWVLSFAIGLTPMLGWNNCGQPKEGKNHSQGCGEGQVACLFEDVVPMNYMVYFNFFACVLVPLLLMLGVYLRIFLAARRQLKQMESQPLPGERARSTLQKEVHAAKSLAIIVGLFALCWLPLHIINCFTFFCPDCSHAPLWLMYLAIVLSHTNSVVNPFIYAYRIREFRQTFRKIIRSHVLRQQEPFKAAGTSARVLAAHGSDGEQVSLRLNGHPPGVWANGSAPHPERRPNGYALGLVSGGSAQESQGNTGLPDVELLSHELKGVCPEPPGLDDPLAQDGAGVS
Below, each entry is listed alongside its reported inhibition.
Unit % implied. Number only.

// worked examples, inhibition included
> print(dat)
                                chem.smiles  result.unit  val
1  CCCn1c(NCc2ccc(C)cc2)nc2nc(C3CCCC3)[nH]c2c1=O            %    0
2  CCCn1c(NCC(=O)O)nc2nc(C3CCCC3)[nH]c2c1=O            %    0

Please report inhibition for the following molecule: `CCCn1c(-c2cccc(O)c2)nc2nc(C3CCCC3)[nH]c2c1=O`
74

Recall and state the measured inhibition for `CCCn1c(OC2CCOCC2)nc2nc(C3CCCC3)[nH]c2c1=O` .
82

Please give the documented inhibition of `CCCn1c(-c2cccc(C(F)(F)F)c2)nc2nc(C3CCCC3)[nH]c2c1=O`
0

Indicate the recorded inhibition value for this molecule: `CCCn1c(Oc2ccc3[nH]ccc3c2)nc2nc(C3CCCC3)[nH]c2c1=O`
0

Return reported inhibition. Input molecule: `CCCn1c(Oc2cccc(C(F)(F)F)c2)nc2nc(C3CCCC3)[nH]c2c1=O`
34

###

The entries below are paired with their reported inhibition.
biological target: Adenosine receptor A2b (Homo sapiens); test: Displacement of [3H]MRS-1754 from human adenosine A2B receptor expressed in HEK293 cell membranes at 1 uM after 90 mins relative to control
Lab book: enter the figure in %, no units written.

These recorded examples may help you get a feel for the data.
> print(dat)
                                chem.smiles  result.unit  val
1  CCCn1c(Nc2ccc(F)cc2)nc2nc(C3CCCC3)[nH]c2c1=O            %    6
2  CCCn1c(-c2ccc(C(F)(F)F)cc2)nc2nc(C3CCCC3)[nH]c2c1=O            %   12
3  CCCn1c(Oc2cccnc2C)nc2nc(C3CCCC3)[nH]c2c1=O            %   49
4  CCCn1c(Oc2cccc(O)c2)nc2nc(C3CCCC3)[nH]c2c1=O            %   53
5  CCCn1c(NCc2ccc(C)cc2)nc2nc(C3CCCC3)[nH]c2c1=O            %    6

Answer briefly: inhibition recorded on Adenosine receptor A2b (Homo sapiens) for `CCCn1c(Oc2cccc(OC)c2)nc2nc(C3CCCC3)[nH]c2c1=O`
70

Recall the reported inhibition of `CCCn1c(Oc2cccc3cc[nH]c23)nc2nc(C3CCCC3)[nH]c2c1=O` when tested on Adenosine receptor A2b (Homo sapiens).
42

Report inhibition from Adenosine receptor A2b (Homo sapiens) testing of `CCCn1c(OC2CCCC2)nc2nc(C3CCCC3)[nH]c2c1=O`
92

Given `CCCn1c(Oc2cncc(Cl)c2)nc2nc(C3CCCC3)[nH]c2c1=O` , report its inhibition on Adenosine receptor A2b (Homo sapiens).
37

# return inhibition of `CCCn1c(Oc2ccc3[nH]ccc3c2)nc2nc(C3CCCC3)[nH]c2c1=O` (system: Adenosine receptor A2b (Homo sapiens))
0

Report measured inhibition on Adenosine receptor A2b (Homo sapiens); entry: `CCCn1c(NCc2ccc(C(=O)O)cc2)nc2nc(C3CCCC3)[nH]c2c1=O`
16

Recall the reported inhibition of `CCCn1c(Oc2cccc(C(F)(F)F)c2)nc2nc(C3CCCC3)[nH]c2c1=O` when tested on Adenosine receptor A2b (Homo sapiens).
0

Quote inhibition with test system Adenosine receptor A2b (Homo sapiens) for `CCCn1c(Nc2cccc(C(F)(F)F)c2)nc2nc(C3CCCC3)[nH]c2c1=O`
5

###

assay: Drug uptake in Wistar rat brain at 5 mg/kg, po via gavage measured at 4 hrs post dose by LC-Ms/MS analysis; assay type: ADME, organism-based; conditions: read-out: Drug uptake
property.name: concentration at 4 h (ng/g)
Express your answer in ng/g, writing the number without its unit.

Provide measured concentration at 4 h value, entry: `CCCn1c(-c2cccc(OC)c2)nc2nc(C3CCCC3)[nH]c2c1=O`
10

###

molecular target: Adenosine receptor A1 (Homo sapiens, UniProt P30542); test: Displacement of [3H]DPCPX from human adenosine A1 receptor expressed in HEK293 cell membranes after 90 mins
Sequence (P30542 whole entry): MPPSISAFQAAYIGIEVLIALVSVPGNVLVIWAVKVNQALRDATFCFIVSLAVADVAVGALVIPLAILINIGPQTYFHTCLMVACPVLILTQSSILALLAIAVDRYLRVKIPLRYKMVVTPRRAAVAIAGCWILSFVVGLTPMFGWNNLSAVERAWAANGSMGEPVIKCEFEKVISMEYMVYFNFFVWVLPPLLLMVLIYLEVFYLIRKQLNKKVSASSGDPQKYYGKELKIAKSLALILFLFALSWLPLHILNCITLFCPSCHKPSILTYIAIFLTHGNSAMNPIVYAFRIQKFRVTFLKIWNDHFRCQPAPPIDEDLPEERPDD
property.name: log10(Ki) (log10 of the value in nM)
Heads up, the numbers here are log10 of Ki in nM units.

Worked set:
> print(dat)
                                   compound  property.name   val
1  CCCn1c(OC2CCCC2)nc2nc(C3CCCC3)[nH]c2c1=O      log10(Ki)  1.15
2  CCCn1c(Nc2cccc(C(F)(F)F)c2)nc2nc(C3CCCC3)[nH]c2c1=O      log10(Ki)  2.57
3  CCCn1c(-c2cccc(OC)c2)nc2nc(C3CCCC3)[nH]c2c1=O      log10(Ki)  1.20
4  CCCn1c(Oc2ccc(F)c(F)c2)nc2nc(C3CCCC3)[nH]c2c1=O      log10(Ki)  1.36
5  CCCn1c(NCc2ccc(C(F)(F)F)cc2)nc2nc(C3CCCC3)[nH]c2c1=O      log10(Ki)  1.36
6  CCCn1c(Oc2cccnc2Cl)nc2nc(C3CCCC3)[nH]c2c1=O      log10(Ki)  0.56

Report log10(Ki) for `CCCn1c(NCc2cccc(Cl)c2)nc2nc(C3CCCC3)[nH]c2c1=O`
2.08

Read the entry `CCCn1c(O[C@@H]2CCOC2)nc2nc(C3CCCC3)[nH]c2c1=O` and write its reported log10(Ki).
1.70

Give log10(Ki) for `CCCn1c(Oc2ccc(C)nc2)nc2nc(C3CCCC3)[nH]c2c1=O`
2.80

Return reported log10(Ki). Input compound: CCCn1c(OC2CCC(O)C2)nc2nc(C3CCCC3)[nH]c2c1=O (stereo unspecified)
1.76

Return reported log10(Ki). Input compound: `CCCn1c(OC2CCOCC2)nc2nc(C3CCCC3)[nH]c2c1=O`
1.30

Give recorded log10(Ki). `CCCn1c(-c2cccc(O)c2)nc2nc(C3CCCC3)[nH]c2c1=O`
0.00

Report measured log10(Ki); entry is `CCCn1c(Oc2cccc(O)c2)nc2nc(C3CCCC3)[nH]c2c1=O`
1.02

Read off the recorded log10(Ki) for CCCn1c(OC2CCOC2)nc2nc(C3CCCC3)[nH]c2c1=O (stereo unspecified)
1.77

In one line, give reported log10(Ki) of the entry `CCCn1c(Oc2cccc3cc[nH]c23)nc2nc(C3CCCC3)[nH]c2c1=O` .
0.74

Quickly give me recorded log10(Ki) for `CCCn1c(Oc2cccnc2C)nc2nc(C3CCCC3)[nH]c2c1=O`
0.82

State its log10(Ki): `CCCn1c(Oc2ccc3[nH]ccc3c2)nc2nc(C3CCCC3)[nH]c2c1=O`
1.56

Write down log10(Ki) measured for item `CCCn1c(Oc2cccc(C(F)(F)F)c2)nc2nc(C3CCCC3)[nH]c2c1=O`
1.28

Give the reported log10(Ki) for this compound. `CCCn1c(Oc2cncc(Cl)c2)nc2nc(C3CCCC3)[nH]c2c1=O`
1.08

In one line, give reported log10(Ki) of the entry `CCCn1c(Nc2cccc(F)c2)nc2nc(C3CCCC3)[nH]c2c1=O` .
3.65

Report measured log10(Ki); entry is `CCCn1c(O[C@H]2CCOC2)nc2nc(C3CCCC3)[nH]c2c1=O`
1.93

Please give measured log10(Ki) of the following entry: `CCCn1c(NCc2ccc(C)cc2)nc2nc(C3CCCC3)[nH]c2c1=O`
1.43

Consider the compound `CCCn1c(Oc2cccc3[nH]ccc23)nc2nc(C3CCCC3)[nH]c2c1=O` and give its recorded log10(Ki).
1.87

###

molecular target: Adenosine receptor A2a (Homo sapiens, UniProt P29274); assay: Displacement of [3H]ZM241385 from human adenosine A2A receptor expressed in HEK293 cell membranes at 1 uM after 90 mins relative to control
property.name: inhibition

Record excerpt, results attached:
> print(dat)
                                   compound                                    system  val
1  CCCn1c(Oc2cccnc2C)nc2nc(C3CCCC3)[nH]c2c1=O  Adenosine receptor A2a (Homo sapiens, UniProt P29274)  33%
2  CCCn1c(Nc2cccc(C(F)(F)F)c2)nc2nc(C3CCCC3)[nH]c2c1=O  Adenosine receptor A2a (Homo sapiens, UniProt P29274)  27%
3  CCCn1c(Oc2cccc(OC)c2)nc2nc(C3CCCC3)[nH]c2c1=O  Adenosine receptor A2a (Homo sapiens, UniProt P29274)  36%
4      CCCn1c(NCCO)nc2nc(C3CCCC3)[nH]c2c1=O  Adenosine receptor A2a (Homo sapiens, UniProt P29274)   5%
5  CCCn1c(OC2CCCC2)nc2nc(C3CCCC3)[nH]c2c1=O  Adenosine receptor A2a (Homo sapiens, UniProt P29274)  85%

Answer with the recorded inhibition for the compound listed here: `CCCn1c(NCc2ccc(C(F)(F)F)cc2)nc2nc(C3CCCC3)[nH]c2c1=O`
0%

# return recorded inhibition for entry `CCCn1c(NCc2ccc(C(=O)O)cc2)nc2nc(C3CCCC3)[nH]c2c1=O`
31%

Give a short answer stating reported inhibition for CCCn1c(OC2CCC(O)C2)nc2nc(C3CCCC3)[nH]c2c1=O (stereo unspecified) .
0%

Determine from records and report inhibition for `CCCn1c(Nc2ccc(F)cc2)nc2nc(C3CCCC3)[nH]c2c1=O`
0%

Identify measured inhibition associated with `CCCn1c(Nc2cccc(F)c2)nc2nc(C3CCCC3)[nH]c2c1=O`
31%
